system: Acetylcholinesterase (Homo sapiens)
assay notes: Acetylcholinesterase (AChE) small molecule antagonists: fluorescence cell-based qHTS assay (AID 1347398); also: nearly all actives have a fitted effect of over 50% in size
cond: SH-SY5Y cells; AChE activity; series mostly up to 115 µM
Results filed as inconclusive are left out. The source made the active and inactive calls. Calls follow the shape of the full dose curve.
Choose one outcome from this list and give only that: active, inactive

Use the examples below as a reference point.
> print(dat)
                                   molecule                               system       cat
1  COc1ccc2c(c1OC)C(=O)O[C@@H]2[C@H]1c2c(cc3c(c2OC)OCO3)CCN1C  Acetylcholinesterase (Homo sapiens)  inactive
2                               CCCC(=O)OCC  Acetylcholinesterase (Homo sapiens)  inactive

What is the recorded call for this molecule in the test? O=S(=O)(O)c1ccc2cc(O)c(S(=O)(=O)O)cc2c1 inactive

Subsequent entry: CC/C=C\CCOC(C)=O inactive

Request: CCC(C)(C)C(=O)O inactive

Consider next the molecule CC1CCN(CCCC(=O)c2ccc(F)cc2)CC1 in the same way. inactive

// repeat for C=CCc1ccccc1OCC(O)CNC(C)C (stereo not given) and report inactive
